# system.name: Adenine DNA glycosylase (Homo sapiens) (UniProt Q9UIF7);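 note: human MUTYH activity read as 594 nm fluorescence from cleavage and release of a quenched DNA duplex, coupled with APE1 for strand incision, lower signal meaning inhibition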
# Sequence (whole entry): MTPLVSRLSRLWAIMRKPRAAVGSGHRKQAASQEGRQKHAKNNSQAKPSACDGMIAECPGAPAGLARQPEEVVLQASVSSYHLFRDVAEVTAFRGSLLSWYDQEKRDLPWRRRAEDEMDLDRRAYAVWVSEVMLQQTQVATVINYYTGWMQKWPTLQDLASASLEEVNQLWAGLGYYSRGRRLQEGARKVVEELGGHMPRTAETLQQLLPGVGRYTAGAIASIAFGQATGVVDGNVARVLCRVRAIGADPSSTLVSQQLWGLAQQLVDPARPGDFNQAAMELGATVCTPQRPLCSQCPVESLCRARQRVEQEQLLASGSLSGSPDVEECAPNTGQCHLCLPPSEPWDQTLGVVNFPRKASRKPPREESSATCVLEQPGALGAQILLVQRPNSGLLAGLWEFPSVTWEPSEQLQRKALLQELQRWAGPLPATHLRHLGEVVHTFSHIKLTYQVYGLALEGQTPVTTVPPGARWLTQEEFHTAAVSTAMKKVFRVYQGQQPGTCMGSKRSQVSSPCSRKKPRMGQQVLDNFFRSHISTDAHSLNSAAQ
# particulars: Compound Concentration 10.0 uM, Hit No
# Description: Inhibition of MUTYH by quantifying inhibition of MUTYH-mediated cleavage and dissociation of quenched duplex DNA oligonucleotides, measured as fluorescence at 594 nm. To generate a functional strand incision and increase turn-over this assay is coupled to APE1.
measurement.kind: inhibition (%)
Form entry: value (%) — number only.

- molecule: "COc1cc(-c2cncc(-c3ccc(N4CCN(C(C)C)CC4)cc3)c2C)cc(F)c1C(N)=O"
  inhibition [%]: -6.43
- molecule: "O=C(O)C1CN(Cc2ccc(-c3nc4cc(Cc5ccccc5F)ccc4s3)c(F)c2)C1"
  inhibition [%]: -0.363
- molecule: "O=C(NCC(=O)N1CC[C@H](N[C@H]2CC[C@@](O)(c3ccc(-c4ncccn4)cn3)CC2)C1)c1cccc(C(F)(F)F)c1"
  inhibition [%]: 10.3
- molecule: "CCn1c(=O)c(C)cn(Cc2nnc(-c3ccc(F)c(O)c3F)s2)c1=O"
  inhibition [%]: -9.23
- molecule: "O=C(NCCNCC(O)COc1ccc(O)cc1)N1CCOCC1 (centres undefined)"
  inhibition [%]: -0.651
- molecule: "CN(C)[C@H]1CCN(c2cc(-c3ccccc3)nc3ccnn23)C1"
  inhibition [%]: 15.6
- molecule: "COc1cc([N+](=O)[O-])ccc1NC(=O)c1ccccc1O"
  inhibition [%]: 4.12
- molecule: "Nc1nc2cc(-c3cc(Cl)ccc3Oc3cc(F)c(S(=O)(=O)Nc4ncns4)cc3F)ccc2[nH]1"
  inhibition [%]: 39.3

Now take the following molecule into account.
Which inhibition value is on record for Cc1cc(OC2CCS(=O)(=O)CC2)cc(C)c1-c1cccc(COc2ccc(CCC(=O)O)c(F)c2)c1 ? 3.94
